Hello, the source for this data is the supplement of paper PMC11451515, in case you need it.

Reported cell viability values for a set of compounds
tested on: P12-Ichikawa; assay: cell viability relative to DMSO control; higher = less cytotoxic; settings: HPLM + 10% dialyzed FBS; 48 h; 0.00702 µM

COMPOUND	UNIT STRING	cell viability
c1cc(-c2sc(-c3ccncc3)c(-c3ccncc3)c2-c2ccncc2)ccn1	%	108
CN1C(=O)COc2c(C(=O)NC3CN4CCC3CC4)cc(Cl)cc21 (centres undefined)	%	104
COc1ccc(-c2nc3cc(C4=NNC(=O)CC4C)ccc3[nH]2)cc1 (centres undefined)	%	109
CCCn1c(=O)c2[nH]c(-c3cnn(Cc4cccc(C(F)(F)F)c4)c3)nc2n(CC)c1=O	%	122
COc1ccc2cc(-c3[nH]c(-c4ccc([S+](C)[O-])cc4)nc3-c3ccncc3)ccc2c1 (centres undefined)	%	116
CN1[C@@H]2CC(O)C[C@H]1[C@@H]1O[C@@H]12 (some centres undefined)	%	124
COc1ccc2cccc(CCNC(C)=O)c2c1	%	102
CNC(=O)c1c(F)cccc1Nc1nc(Nc2cc3c(cc2OC)CCN3C(=O)CN(C)C)nc2[nH]ccc12	%	110
Cc1cnc(Nc2ccc(OCCN3CCCC3)cc2)nc1Nc1cccc([S+](=O)([O-])NC(C)(C)C)c1	%	110

* * *

# cell viability per entry
tested on: SEM cells; assay: cell viability relative to DMSO control; higher = less cytotoxic; details: HPLM + 10% dialyzed FBS; 48 h; 0.0211 µM

RECORD SMILES	cell viability / %
COc1cc2c(NC3CCN(C(C)C)CC3)nc(C3CCCCC3)nc2cc1OCCCN1CCCC1	122
CCCn1c(=O)c2[nH]c(-c3cnn(Cc4cccc(C(F)(F)F)c4)c3)nc2n(CC)c1=O	120
CCCCCCCCCCCCCCCC(=O)OC[C@@H](NC(=O)C(Cl)Cl)[C@H](O)c1ccc([N+](=O)[O-])cc1	116
COc1ccc(CCC(=O)Nc2nc3ccc(Cl)cc3s2)cc1OC	111

* * *

system: P12-Ichikawa; test: cell viability relative to DMSO control; higher = less cytotoxic; conditions: HPLM + 10% dialyzed FBS; 48 h; 46.1 µM
Below, each entry is listed alongside its reported cell viability.
PROPERTY NAME: cell viability (%)

COMPOUND	NUMERIC READOUT
Cc1cnc(Nc2ccc(OCCN3CCCC3)cc2)nc1Nc1cccc([S+](=O)([O-])NC(C)(C)C)c1	112
Cc1cc(SCc2sc(-c3ccc(C(F)(F)F)c(F)c3)nc2C)ccc1OCC(=O)O	91.5
CCc1cc(/C(C)=N/OCc2ccc(C3CCCCC3)c(C(F)(F)F)c2)ccc1CN1CC(C(=O)O)C1	18.9
Nc1cccc(-c2cc3c(Oc4cccc(O)c4)ncnc3[nH]2)c1	15.1
CN(C)CCC=C1C2=C(C=CC=C2)\C=C/C3=C1C=CC=C3	87.1
CN(C(=O)c1ccc(F)cc1C(F)(F)F)C1CCN(c2nnc(-c3ccnn3C)c3ccccc23)CC1	47.3
CCCn1c(=O)c2[nH]c(-c3cnn(Cc4cccc(C(F)(F)F)c4)c3)nc2n(CC)c1=O	84.7
CN(C)c1ccc(C(=O)NCCCCCCC(=O)NO)cc1	1.62
Cc1nc2c([nH]1)-c1ccccc1N(C(=O)c1ccc(NC(=O)c3ccccc3-c3ccccc3)cc1)CC2	128
CN1C(=O)COc2c(C(=O)NC3CN4CCC3CC4)cc(Cl)cc21 (configuration not stated)	111
OC1=C(C=CC=C1)C2=CC=C(C=C2)C3=CSC4=C3C(=C(/C#N)C(=O)N4)/O	110
C[C@@]12OC(=O)[C@@]1(NC(=O)[C@@H]2CCCl)[C@@H](O)[C@H]\3CCC\C=C3	0.616
COc1ccc2cccc(CCNC(C)=O)c2c1	89.6
Cl.Cl.Fc1ccc(C(OCCN2CCN(CCCc3ccccc3)CC2)c2ccc(F)cc2)cc1	78.4
CC1=C2N=C([NH]C2=CC(=C1)N3CCOCC3)\C4=C(NC[C@@H](O)C5=CC=CC(=C5)Cl)\C=C/NC4=O	90.8
CCOC(=O)c1ccc(C#Cc2ccc3c(c2)C(C)(C)CCS3)nc1	78.7
COc1ccc(-c2c(-c3ccc(O)cc3O)n[nH]c2C)cc1	78.1
CCC(CC)[C@H](NC(C)=O)[C@@H]1[C@H](O)[C@@H](C(=O)O)C[C@H]1NC(=N)N	101
CCCCc1oc2ccc(NS(C)(=O)=O)cc2c1C(=O)c1ccc(OCCCN(CCCC)CCCC)cc1	15
NC12CC3CC(CC(C3)C1)C2	105
O=C(Oc1ccc([N+](=O)[O-])cc1)N1CCN(Cc2cccc(Oc3ccccc3)c2)CC1	104
CC(C)[C@H](CO)Nc1nc(Nc2ccc(C(=O)O)c(Cl)c2)c2ncn(C(C)C)c2n1	92.9
N/C(=N\C(=O)c1nc(Cl)c(N)nc1N)NCc1ccccc1	70.9
CC1(C)O[C@H]2CC(=O)OC[C@]23[C@H]2CC[C@@]4(C)[C@H](c5ccoc5)OC(=O)[C@H]5O[C@]54[C@]2(C)C(=O)C[C@@H]13	110
C[C@H]([C@H]1C\C(=C(CO)/C(=O)O1)C)[C@H]2CC[C@H]3[C@@H]4C[C@H]5O[C@]56[C@@H](O)\C=C/C(=O)[C@]6(C)[C@H]4CC[C@]23C	1.95
Cn1c(=O)c2c(ncn2CC(O)CO)n(C)c1=O (configuration not stated)	124
COc1cc2nc(-c3ccc(N4CCN(C)CC4)cc3)nc(NCCN3CCOCC3)c2cc1OC	3.38

* * *

system: P12-Ichikawa; test: cell viability relative to DMSO control; higher = less cytotoxic; conditions: RPMI 5 mM glucose + 10% FBS; 48 h; 0.0211 µM
Item-by-item account of cell viability

RECORD SMILES	cell viability (%)
N/C(=N\C(=O)c1nc(Cl)c(N)nc1N)NCc1ccccc1	92.1
COc1ccc(-c2c(-c3ccc(O)cc3O)n[nH]c2C)cc1	100
CC1=C(C)C2=C(S1)[N]3C(=NN=C3[C@H](CC(=O)OC(C)(C)C)/N=C2/C4=CC=C(Cl)C=C4)C	97.6
c1cc(-c2sc(-c3ccncc3)c(-c3ccncc3)c2-c2ccncc2)ccn1	113
c1cc(OCCN2CCCCC2)cc(-c2n[nH]c3ccc(-c4nc[nH]n4)cc23)c1	116
CCC(CC)[C@H](NC(C)=O)[C@@H]1[C@H](O)[C@@H](C(=O)O)C[C@H]1NC(=N)N	86
Nc1ccc([S+](=O)([O-])Nc2ccccn2)cc1	117

* * *

Each record here notes measured cell viability.
system: P12-Ichikawa; assay: cell viability relative to DMSO control; higher = less cytotoxic; details: RPMI 5 mM glucose + 10% dialyzed FBS; 48 h; 0.00234 µM

RECORD SMILES	UNIT STRING	cell viability
CC(Oc1ccc(O)cc1)(P(=O)(O)O)P(=O)(O)O	%	97.5
CCc1cc(/C(C)=N/OCc2ccc(C3CCCCC3)c(C(F)(F)F)c2)ccc1CN1CC(C(=O)O)C1	%	111
COc1ccc([C@@H]2CNC(=O)C2)cc1OC1CCCC1	%	106
O=C1c2cccc(O)c2C(=O)c2c(O)cc(CO)cc21	%	92.2
O=C(Oc1ccc([N+](=O)[O-])cc1)N1CCN(Cc2cccc(Oc3ccccc3)c2)CC1	%	92.2

* * *

test system: NOMO1; experiment: cell viability relative to DMSO control; higher = less cytotoxic; settings: RPMI 5 mM glucose + 10% FBS; 48 h; 0.0211 µM
Each entry below carries its recorded cell viability.

COMPOUND	cell viability, %
COc1ccc([C@@H]2CNC(=O)C2)cc1OC1CCCC1	96.7
CN(C)c1ccc(C(=O)NCCCCCCC(=O)NO)cc1	92.3
Clc1ccc(COC(Cn2ccnc2)c2ccc(Cl)cc2Cl)cc1 (centres undefined)	123
CCC1=C(C)CN(C(=O)NCCc2ccc(S(=O)(=O)NC(=O)N[C@H]3CC[C@H](C)CC3)cc2)C1=O	98.4
C[C@@]12OC(=O)[C@@]1(NC(=O)[C@@H]2CCCl)[C@@H](O)[C@H]\3CCC\C=C3	103
COc1cc2nc(-c3ccc(N4CCN(C)CC4)cc3)nc(NCCN3CCOCC3)c2cc1OC	94.5
c1ccc2c(Oc3nc(Nc4ccc(N5CCOCC5)cc4)c4ncn(C5CCCCC5)c4n3)cccc2c1	127
CC1OC(OC/2=C(/OC3=C(C(=CC(=C3)O)O)C2=O)C4=CC=C(O)C=C4)C(O)C(OC(C)=O)C1OC(C)=O (centres undefined)	100
CCC(CC)[C@H](NC(C)=O)[C@@H]1[C@H](O)[C@@H](C(=O)O)C[C@H]1NC(=N)N	85.8

* * *

test system: NOMO1; test: cell viability relative to DMSO control; higher = less cytotoxic; conditions: RPMI 5 mM glucose + 10% dialyzed FBS; 48 h; 0.0632 µM
Below, each entry is listed with its recorded cell viability.
PROPERTY NAME: cell viability (%)

COMPOUND	PROPERTY NAME	UNIT STRING	NUMERIC READOUT
CCCn1c(=O)c2[nH]c(C34CC5CC3C[C@@H](C5)C4)nc2n(CCC)c1=O	cell viability	%	107
CNC(=O)c1c(F)cccc1Nc1nc(Nc2cc3c(cc2OC)CCN3C(=O)CN(C)C)nc2[nH]ccc12	cell viability	%	117
NC/1=N/C(=O)N(/C=C1)[C@H]2CC[C@@H](CO)O2	cell viability	%	101
Cc1cc(SCc2sc(-c3ccc(C(F)(F)F)c(F)c3)nc2C)ccc1OCC(=O)O	cell viability	%	99.2
O=C1[O][Pt]2([NH]C3CCCCC3[NH]2)[O]C1=O (stereo not given)	cell viability	%	109
COc1ccc(-c2nc3cc(C4=NNC(=O)CC4C)ccc3[nH]2)cc1 (stereo not given)	cell viability	%	110
OC1=C(C=CC=C1)C2=CC=C(C=C2)C3=CSC4=C3C(=C(/C#N)C(=O)N4)/O	cell viability	%	122
NC\1=N\C(=O)N(\C=N1)[C@H]2C[C@H](O)[C@@H](CO)O2	cell viability	%	98.6
CC(C)(O)CNc1nc(Nc2ccnc(C(F)(F)F)c2)nc(-c2cccc(C(F)(F)F)n2)n1	cell viability	%	121
CN1C(=O)COc2c(C(=O)NC3CN4CCC3CC4)cc(Cl)cc21 (stereo not given)	cell viability	%	97.1
COc1cc(/C=C/C(=O)CC(=O)/C=C/c2ccc(O)c(OC)c2)ccc1O	cell viability	%	118
NC12CC3CC(CC(C3)C1)C2	cell viability	%	93.1
C[Se]CCC(N)C(=O)O (stereo not given)	cell viability	%	91.1
Cn1cc(-c2ccncc2)c(-c2ccc(OCc3ccc4ccccc4n3)cc2)n1	cell viability	%	114
CC1(C)CC(=O)c2c(C(F)(F)F)nn(-c3ccc(C(N)=O)c(NC4CCC(OC(=O)CN)CC4)c3)c2C1 (stereo not given)	cell viability	%	89.2
COc1ccc2cc(-c3[nH]c(-c4ccc([S+](C)[O-])cc4)nc3-c3ccncc3)ccc2c1 (stereo not given)	cell viability	%	121
COc1cc2nc(-c3ccc(N4CCN(C)CC4)cc3)nc(NCCN3CCOCC3)c2cc1OC	cell viability	%	111
COc1ccc([C@@H]2CNC(=O)C2)cc1OC1CCCC1	cell viability	%	114
O=C(Oc1ccc([N+](=O)[O-])cc1)N1CCN(Cc2cccc(Oc3ccccc3)c2)CC1	cell viability	%	99.9
c1ccc2c(-c3cnn4cc(-c5ccc(N6CCNCC6)cc5)cnc34)ccnc2c1	cell viability	%	173
